Below, each entry is listed alongside its reported inhibition.
Assay: blockers of RIG-like receptor reporter activation – cell-based, Sendai virus stimulus, luciferase, 10K MLSCN set, TLR/RLR signaling modifier project, primary screen (AID 602276);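 also: firefly luciferase from ISG56 promoter only with Renilla not read in this screen; 0% = Sendai virus plus DMSO and 100% = medium plus DMSO without virus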
Conditions: HEK293 RL24 IRF3 luciferase reporter, at 10 µM, stronger effect = higher value

[
  {
    "compound": "CCOc1cc(NC(=O)c2ccco2)c(OCC)cc1NC(=O)Cc1cccc(OC)c1",
    "unit_spec": "%",
    "inhibition": -6.51
  },
  {
    "compound": "Cc1ccc(NC(=O)c2ccccc2F)nc1",
    "unit_spec": "%",
    "inhibition": -16.7
  },
  {
    "compound": "O=C(Nc1nc(-c2ccccn2)cs1)C1CC1",
    "unit_spec": "%",
    "inhibition": -68.6
  },
  {
    "compound": "CCOC(=O)CSc1nnc(-c2ccc(NS(=O)(=O)c3ccc(C)cc3)cc2)o1",
    "unit_spec": "%",
    "inhibition": 8.31
  },
  {
    "compound": "CCOC(=O)c1ccc(NCc2nc3ccccc3[nH]2)cc1",
    "unit_spec": "%",
    "inhibition": -76.1
  },
  {
    "compound": "COc1cc(CN(C)CC(=O)c2[nH]c(C)c(C(C)=O)c2C)ccc1OC(F)F",
    "unit_spec": "%",
    "inhibition": -17.1
  },
  {
    "compound": "CCOCCCn1c(=NC(C)=O)c(C(=O)OCC)cc2c(=O)n3ccccc3nc21",
    "unit_spec": "%",
    "inhibition": -7.28
  },
  {
    "compound": "Cc1c(Cl)cccc1N1C(=O)c2ccccc2C1=O",
    "unit_spec": "%",
    "inhibition": -1.09
  },
  {
    "compound": "COc1ccc(OCCSc2nc3ccccc3n2CC(=O)O)cc1",
    "unit_spec": "%",
    "inhibition": 16.6
  },
  {
    "compound": "S=c1[nH]nc(-c2ccccc2)n1C1C=CCCC1 (stereo unspecified)",
    "unit_spec": "%",
    "inhibition": 4.48
  },
  {
    "compound": "Cc1c(NC(=O)Cn2nc(C(=O)O)c3ccccc3c2=O)c(=O)n(-c2ccccc2)n1C",
    "unit_spec": "%",
    "inhibition": -13.8
  }
]

---

Assay: reduction of polyQ htt aggregates in cells – imaging, exon1htt(103Q)mCFP cells, high-content imaging, primary screen (AID 483);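 also: compound exposure lasted 3 days before fixation; percent of the per-plate median nuclei count of sample wells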
Conditions: exon1htt(103Q)mCFP cell line, aggregate imaging, at 2 µM; measured here: cell count, toxicity
Below, each entry is listed alongside its reported nuclei count.

[
  {
    "compound_smiles": "CCOC(=O)CSc1nnc(-c2ccc(NS(=O)(=O)c3ccc(C)cc3)cc2)o1",
    "nuclei count / %": 98.9
  },
  {
    "compound_smiles": "Cn1c(=O)[nH]c(=O)c2c1nc(CN1CCN(c3cccc(Cl)c3)CC1)n2CCc1ccccc1",
    "nuclei count / %": 107
  },
  {
    "compound_smiles": "O=c1c(CN2CCN(Cc3ccccc3)CC2)coc2ccc(Cl)cc12",
    "nuclei count / %": 113
  },
  {
    "compound_smiles": "Cc1ccc(CCNC(=O)C2CCN(S(=O)(=O)c3c(C)nn(C)c3C)CC2)cc1",
    "nuclei count / %": 105
  },
  {
    "compound_smiles": "CS(=O)(=O)N(Cc1nc2sc3c(c2c(=O)[nH]1)CCCC3)C1CCCCC1",
    "nuclei count / %": 106
  }
]
